Target: recombinant HCV NS5B (HCV RNA-dependent RNA polymerase) (Hepatitis C virus genotype 1b, UniProt P26663)
Sequence (P26663 2420-3010 limits assumed): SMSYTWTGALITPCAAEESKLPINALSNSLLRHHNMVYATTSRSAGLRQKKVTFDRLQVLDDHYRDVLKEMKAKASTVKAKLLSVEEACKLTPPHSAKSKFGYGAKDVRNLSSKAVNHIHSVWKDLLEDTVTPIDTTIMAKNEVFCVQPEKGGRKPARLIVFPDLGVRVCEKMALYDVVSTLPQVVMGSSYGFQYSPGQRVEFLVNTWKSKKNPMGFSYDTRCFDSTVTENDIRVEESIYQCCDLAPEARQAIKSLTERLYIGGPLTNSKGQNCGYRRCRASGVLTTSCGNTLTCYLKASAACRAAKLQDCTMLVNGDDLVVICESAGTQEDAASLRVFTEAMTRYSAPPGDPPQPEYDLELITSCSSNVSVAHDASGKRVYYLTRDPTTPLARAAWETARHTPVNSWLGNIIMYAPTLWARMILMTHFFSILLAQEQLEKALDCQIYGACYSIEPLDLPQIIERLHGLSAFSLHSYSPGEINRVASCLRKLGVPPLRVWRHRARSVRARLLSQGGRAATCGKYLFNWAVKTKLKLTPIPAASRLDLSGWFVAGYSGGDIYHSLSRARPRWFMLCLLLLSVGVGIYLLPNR
Assay: biochemical
Conditions: related polymerase activity (Example 27 list); read-out: IC50
pIC50: −log10 of the molar value.
Please provide measured pIC50 for the entries that follow.

smiles.input	measurement
COc1cc(C)ccc1S(=O)(=O)Nc1cc(-c2ccccc2)sc1C(=O)O	4.70 to 5.30
C=CCN(C(=O)C1CCC1)c1cc(-c2ccccc2)sc1C(=O)O	< 4.70
Cc1cc(S(=O)(=O)Nc2cc(-c3ccc(Cl)cc3)sc2C(=O)O)c(C)cc1Cl	> 5.30

Now take the following compound into account.
Query: Bench note: what pIC50 did COc1ccc(-c2cc(NS(=O)(=O)c3ccccc3C)c(C(=O)O)s2)cc1 show?
Response: > 5.30
